The reported numbers originate from patent US8148556B2.

test system: α-Glucosidase (E.C.3.2.1.20); assay: α-Glucosidase enzyme inhibition assay; type: biochemical; conditions: Table 1
measured.parameter: Active (activity against alpha-glucosidase enzyme)

{"compound": "C#C[C@]1(O)CC[C@H]2[C@@H]3[C@H](C)CC4=C(CCC(=O)C4)[C@H]3CC[C@@]21C", "readout.value": "No"}
{"compound": "C#CC1(O)CCC2C3C(C)C(O)C4=CC(=O)CCC4C3CCC21C (stereo not drawn) [Compound 12, 6β-Hydroxy-Δ^4-tibolone]", "readout.value": "Yes"}
{"compound": "C#C[C@]1(O)CC[C@H]2[C@@H]3[C@H](C)[C@@H](OC)C4=CC(=O)CC[C@@H]4[C@H]3CC[C@@]21C", "readout.value": "No"}
{"compound": "C#CC1(O)CCC2C3C(C)CC4=CC(=O)C=CC4C3CCC21C (centres unmarked)", "readout.value": "Yes"}
{"compound": "C#CC1(O)CCC2C3C(C)C=C4CC(=O)CCC4C3CCC21C (centres unmarked)", "readout.value": "No"}
{"compound": "C#CC1(O)CC(O)C2C3C(C)C=C4CC(=O)CCC4C3C(O)CC21C (centres unmarked)", "readout.value": "No"}
{"compound": "C#C[C@]1(O)CC[C@H]2[C@@H]3[C@H](C)CC4=C(CC[C@H](O)C4)[C@H]3CC[C@@]21C [Compound 2, 3β-hydroxytibolone]", "readout.value": "No"}
{"compound": "C#CC1(O)CC(O)C2C3C(C)CC4=C(CCC(=O)C4)C3C(O)CC21C (centres unmarked)", "readout.value": "No"}

###

target: α-Glucosidase (E.C.3.2.1.20); experiment: α-Glucosidase enzyme inhibition assay; settings: pH 6.9, 37° C., 0.7 mM PNP-G substrate; NA = inactive compounds
IC50 for assorted compounds

{"compound": "C#CC1(O)CCC2C3C(C)C(O)C4=CC(=O)CCC4C3CCC21C (stereo not drawn) [Compound 13, 6α-Hydroxy-Δ^4-tibolone]", "measured.on": "α-Glucosidase (E.C.3.2.1.20)", "result.modifier": "<", "IC50, µM": 70}
{"compound": "C#CC1(O)CCC2C3C(C)CC4=CC(=O)CCC4(O)C3CCC21C (stereo not drawn) [Compound 8]", "measured.on": "α-Glucosidase (E.C.3.2.1.20)", "result.modifier": "=", "IC50, µM": 877}
{"compound": "C#CC1(O)CCC2C3C(C)C(O)C4=CC(=O)C=CC4C3CCC21C (stereo not drawn) [Compound 15]", "measured.on": "α-Glucosidase (E.C.3.2.1.20)", "result.modifier": "=", "IC50, µM": 340}
{"compound": "C#CC1(O)CCC2C3C(C)C(O)C4=CC(=O)CCC4C3CCC21C (stereo not drawn) [Compound 12, 6β-Hydroxy-Δ^4-tibolone]", "measured.on": "α-Glucosidase (E.C.3.2.1.20)", "result.modifier": "=", "IC50, µM": 653}
{"compound": "C#CC1(O)CC(O)C2C3C(C)CC4=CC(=O)CCC4C3CCC21C (stereo not drawn) [Compound 14, 15α-Hydroxy-Δ^4-tibolone]", "measured.on": "α-Glucosidase (E.C.3.2.1.20)", "result.modifier": "<", "IC50, µM": 70}
{"compound": "C#CC1(O)CCC2C3C(C)CC4=CC(=O)C=CC4C3CCC21C (stereo not drawn) [Compound 7]", "measured.on": "α-Glucosidase (E.C.3.2.1.20)", "result.modifier": "=", "IC50, µM": 227}
